Where these numbers come from: PubChem BioAssay (NCI)

System: HS 578T breast
Experimental Details: NCI-60 one-dose screen, 48 h (100 = growth as untreated, 0 = no growth, -100 = all killed)
Assay Conditions: 10 µM unless noted
About 83,000 compounds went through this panel and 20% of them were active in at least one assay; those are over-represented in the sample as a whole. Activity calls are given as the source filed them. How the source made its calls: active means growth percent below 10; inactive means the rest.
Outcome Measure: growth

The value of growth measured for the molecule COc1ccc2c(O)c(/C=C3\N=Nc4ncccc43)oc2c1C[C@@H]1CCNC[C@H]1F turned out to be -1.31% (active)

Kindly note the recorded growth for ClC(Cl)c1nc(-c2ccccc2)n2nc(-c3ccccc3)cc2n1 , which is -27.3% (active)

Consider Cc1cc(O)cc(-c2nn(C)cc2-c2cc(N3CCOCC3)nc(-c3cccnc3)n2)c1 . Its measured growth is 20.5% (inactive)

Input C#CCOc1ccc2nc(CCl)c(Cl)c(Nc3cccc(C(F)(F)F)c3)c2c1 . Output growth: 88.8% (inactive)

growth measured on O=c1oc2c(cnc3ccccc32)cc1-c1cccc(Cl)c1 = 105% (inactive)

# molecule O=C(/C=C/C12c3ccccc3C(c3ccccc31)C1C(=O)NC(=O)C12)c1ccc(Cl)cc1Cl (configuration not stated) ; its growth = 30.5% (inactive)

So, CCCCCCCCCCCCCCCCCCOc1ccccc1CC(=O)NCC[N+](C)(C)C ? Its growth was 61.8% (inactive)

Entry COc1ccc(C/C(C)=C(\c2ccc(Cl)cc2)c2ccc(OCCCN(C)C)cc2)cc1 , growth reported as 75.6% (inactive)

Documented growth of CC1(C)CC[C@]23CC[C@]4(C)[C@H](CC[C@@H]5[C@@]6(C)C/C(=C/O)C(=O)C(C)(C)[C@@H]6CC[C@]54C)[C@H]2[C@H]1OC3 : 111% (inactive)

# molecule COc1cc(-c2nccc3[nH]c(-c4cccc5[nH]ccc45)nc23)cc(OC)c1OC ; its growth = 38.4% (inactive)

The recorded growth for C[C@H](c1nc2ccc(C#N)cc2[nH]1)[C@H]1CC[C@H]2[C@@H]3CCC4=CC(=O)CC[C@]4(C)[C@H]3CC[C@]12C is 63.4% (inactive)

The recorded growth for O=c1cc(C(F)(F)F)c2cc(-c3cc4ccccc4c(=O)o3)c(O)cc2o1 is 79.5% (inactive)

Sure, the documented growth for CCn1cc(C(=O)O)c(=O)c2cc(F)c(N3CCN(CC(=O)Nc4ccccc4)C(C)C3)c(F)c21 (configuration not stated) is 91.1% (inactive)

Looking up Cc1ccc(Cc2cnc(NC(=O)/C=C/c3ccc(C)o3)s2)cc1 , I see its growth listed as 30.7% (inactive)

growth reading for COc1cc2ncnc(Nc3ccc(S(=O)(=O)Nc4nccs4)cc3)c2cc1OCCCN1CCCC1 : 110% (inactive)

# molecule CSc1ccc2c3c(n(C[C@H](O)CO)c(=O)c2c1)-c1ccccc1C3=O ; its growth = 83.3% (inactive)

Memo: CC1(/C=C/c2ccc(-c3ccccc3)cc2)CCn2cnc3ncnc(c32)N1O (configuration not stated) , reported growth: 55.5% (inactive)

Briefly, growth measured for Cc1nc2sc(C(=O)Nc3ccccn3)c(N)c2cc1C(C)O (configuration not stated) : 74.7% (inactive)

response.value for COc1cc(/C=C/C(=O)c2cc(OC)c(OC)c(OC)c2)ccc1Oc1nc2c(c(=O)n(C)c(=O)n2C)n1C (field: growth) = 26.7% (inactive)

Reported growth for O=Nc1ccc(NC(=O)Nc2ccc([N+](=O)[O-])cc2)cc1 was 91.6% (inactive)

// field: growth; key: CCN(CC)CCCC(Cc1ccccc1)Nc1c2ccc(Cl)cc2nc2ccc(OC)cc12 (configuration not stated) ; value = 52.2% (inactive)

GET /value?item= C=C(C)[C@@H]1CC[C@]2(COC3CCCCO3)CC[C@]3(C)[C@H](CC[C@@H]4[C@@]5(C)C=C(C=O)C(=O)C(C)(C)[C@@H]5CC[C@]43C)[C@@H]12 (some centres not stated) &field=growth returns -24.3% (active)

Recorded growth (molecule C=CN(C(=O)N1CCN(c2cc3c(cc2F)c(=O)c(C(=O)O)cn3C2CC2)CC1)c1nc(-c2ccc(Cl)cc2)cs1 ): 54.3% (inactive)

The molecule listed as Cc1cc(Cl)nc(N2CCN(CCNc3ccnc4cc(Cl)ccc34)CC2)n1 shows growth equal to 76.8% (inactive)

// COc1cc(/C=C/C(=O)c2cccc(-n3cc(-c4ccc(Cl)cc4)[nH]c3=O)c2)ccc1O : growth value = 76.5% (inactive)

// recorded growth for C=C1C(=O)O[C@H]2[C@H]1CC/C(COC(=O)/C=C\C(=O)NCc1ccc(Cn3c(=O)sn(CCCCl)c3=O)cc1)=C\CC[C@@]1(C)O[C@@H]21 : 88.8% (inactive)

Per the records, this molecule ( O=C1/C(=C/c2ccccn2)SC(=S)N1N1CCOCC1 ) has growth equal to 96.7% (inactive)

The molecule Fc1cccc(-c2nc(-c3c[nH]c4ncccc34)cs2)c1 showed growth equal to 46.5% [100 µM] (inactive)

The reported value for CCOC(=O)/C(=C(/C)NCC(C)C)c1cc(O)c(O)c2c(C)cc(=O)[nH]c12 in terms of growth is 79.5% (inactive)

The molecule CC(O)CNC(Cc1ccccc1)c1ccc2c(c1)OCO2 (configuration not stated) showed growth equal to 103% (inactive)

Noted for C/C(=N\Nc1ccccc1)c1ccc(NC2=CC(=O)c3ccccc3C2=O)cc1 : its growth reads 65.5% (inactive)

response.value for O=c1cc(CNc2cc(F)cc(F)c2)c2ccc(I)cc2[nH]1 (field: growth) = 19.9% (inactive)
